test system: CBD metabolism in human liver microsomes (CYP3A4 and CYP2C19); assay: in vitro
Reported Endpoint: IC50 at 15 min

Below: 3 compounds and their reported IC50 at 15 min.
Cc1c(OCC(F)(F)F)ccnc1C[S+]([O-])c1nc2ccccc2[nH]1 (stereo not shown)	20 µM
CNCCC(Oc1ccc(C(F)(F)F)cc1)c1ccccc1 (stereo not shown)	> 33 µM
COc1ccc2[nH]c([S+]([O-])Cc3ncc(C)c(OC)c3C)nc2c1 (stereo not shown)	> 33 µM

Task: Returns the measured IC50 at 15 min for the input compound. Input: CC(C)=CCC/C(C)=C/COc1c2ccoc2cc2oc(=O)ccc12
Output: > 33 µM
